# Target of assay: MCH receptor (Homo sapiens)
# Construct: expressed in transfected cells; host or cells: CHO cells (membranes)
# Sequence (Q99705 whole entry): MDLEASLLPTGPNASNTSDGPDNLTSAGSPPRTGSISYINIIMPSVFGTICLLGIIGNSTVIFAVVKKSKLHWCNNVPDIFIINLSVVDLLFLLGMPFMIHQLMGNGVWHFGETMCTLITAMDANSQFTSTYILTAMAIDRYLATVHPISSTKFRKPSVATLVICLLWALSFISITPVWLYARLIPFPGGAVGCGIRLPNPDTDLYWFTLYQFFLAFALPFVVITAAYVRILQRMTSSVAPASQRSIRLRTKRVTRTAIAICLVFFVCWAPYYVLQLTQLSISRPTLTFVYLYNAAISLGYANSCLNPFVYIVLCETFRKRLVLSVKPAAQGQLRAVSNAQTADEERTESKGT
# Experiment description: MCH Receptor Binding Assay
# Test conditions: Binding Activity; membranes from CHO cells expressing the MCH receptor, [125I]-MCH; read-out: MCH Ki
Let's look at some molecules and their measured Ki.
Recorded metric: Ki (nM)

Chem smiles	Test result
N#Cc1cccc([C@]23CC[C@@H](N(CCCCN4CCCC4)C(=O)Nc4ccc(F)c(Cl)c4)[C@H]2C3)c1	3.9
N#Cc1cccc([C@]23CC[C@@H](N(CCN4CC[C@@H](O)C4)C(=O)Nc4ccc(F)c(Cl)c4)[C@H]2C3)c1	22
CN1CCN(CCN(C(=O)Nc2ccc(F)c(C(F)(F)F)c2)[C@@H]2CC[C@]3(c4cccc(C#N)c4)C[C@H]23)CC1	30
CCCN1CCN(CCN(C(=O)Nc2ccc(F)c(C(F)(F)F)c2)[C@@H]2CC[C@]3(c4cccc(C#N)c4)C[C@H]23)CC1	22
CN1CCN(CCCCN(C(=O)Nc2ccc(F)c(C(F)(F)F)c2)[C@@H]2CC[C@]3(c4cccc(C#N)c4)C[C@H]23)CC1	2.2
N#Cc1cccc([C@]23CC[C@@H](N(CCN4CCNCC4)C(=O)Nc4ccc(F)c(C(F)(F)F)c4)[C@H]2C3)c1	20
CN(C)CCN(C(=O)Nc1ccc(F)c(Cl)c1)[C@@H]1CC[C@]2(c3cccc(C#N)c3)C[C@H]12	14

* * *

# Target of assay: MCH receptor (Homo sapiens)
# Construct: expressed in transfected cells; host or cells: CHO cells (membranes)
# Experiment description: MCH Receptor Binding Assay
# Test conditions: Table 1b, preferred compounds; read-out: MCH R1 Ki
Records here are stratified by Ki; strata: lo = under 4 nM, mid = from 4 nM up to 10 nM, hi = 10 nM and over

Compound	Target of assay	Label class
N#Cc1cccc(C2=CCC(N(CCN3CCCC3)C(=O)Nc3ccc(F)c(C(F)(F)F)c3)CC2)c1 (stereo not drawn)	MCH receptor (Homo sapiens)	lo
CCOC(=O)NC1CCN(CCCN(C(=O)Nc2ccc(F)c(F)c2)[C@@H]2CC[C@@]3(c4cccc(C#N)c4)CC3C2)C1 (stereo partly drawn)	MCH receptor (Homo sapiens)	mid
CN1CCN(CCCCN(C(=O)Nc2ccc(F)c(Cl)c2)[C@@H]2CC[C@]3(c4cccc(C#N)c4)C[C@H]23)CC1	MCH receptor (Homo sapiens)	lo
N#Cc1cccc([C@@]23CC[C@@H](N(CCN4CC[C@@H](O)C4)C(=O)Nc4ccc(F)c(C(F)(F)F)c4)CC2C3)c1 (stereo partly drawn) [drawing 651]	MCH receptor (Homo sapiens)	mid
CN1CCN(CCCN(C(=O)Nc2ccc(F)c(Cl)c2)[C@@H]2CC[C@]3(c4cccc(Cl)c4)C[C@H]23)CC1	MCH receptor (Homo sapiens)	hi
N#Cc1cccc([C@]23CC[C@@H](N(CCN4CC[C@@H](O)C4)C(=O)Nc4ccc(F)c(C(F)(F)F)c4)[C@H]2C3)c1 [drawing 669]	MCH receptor (Homo sapiens)	mid
CN(C)CCN(C(=O)Nc1ccc(F)c(Cl)c1)[C@@H]1CC[C@]2(c3cccc(C#N)c3)C[C@H]12 [drawing 673]	MCH receptor (Homo sapiens)	hi
N#Cc1cccc([C@@]23CC[C@@H](N(CCCN4CC[C@@H](O)C4)C(=O)Nc4ccc(F)c(Cl)c4)CC2C3)c1 (stereo partly drawn) [drawing 646]	MCH receptor (Homo sapiens)	lo
CC(C)N(CCN(C(=O)Nc1cc(Cl)nc(Cl)c1)[C@@H]1CC[C@@]2(c3cccc(C#N)c3)CC2C1)C(C)CO (stereo partly drawn)	MCH receptor (Homo sapiens)	lo
CS(=O)(=O)N1CCC(CN(C(=O)Nc2ccc(F)c(F)c2)[C@@H]2CC[C@@]3(c4cccc(C#N)c4)CC3C2)CC1 (stereo partly drawn)	MCH receptor (Homo sapiens)	mid
N#Cc1cccc([C@@]23CC[C@@H](N(CCN4CC[C@@H](O)C4)C(=O)Nc4ccc(F)c(C(F)(F)F)c4)CC2C3)c1 (stereo partly drawn) [drawing 655]	MCH receptor (Homo sapiens)	hi
N#Cc1cccc([C@@]23CCC(N(CCN4CC[C@@H](O)C4)C(=O)Nc4cc(Cl)cc(Cl)c4)CC2C3)c1 (stereo partly drawn)	MCH receptor (Homo sapiens)	lo
N#Cc1cccc(C23CCC(N(CCN4CCCC4)C(=O)Nc4ccc(F)c(Cl)c4)C2C3)c1 (stereo not drawn)	MCH receptor (Homo sapiens)	hi
N#Cc1cccc([C@@]23CC[C@@H](N(CCCN4CC[C@@H](O)C4)C(=O)Nc4ccc(F)c(Cl)c4)CC2C3)c1 (stereo partly drawn) [drawing 656]	MCH receptor (Homo sapiens)	lo
N#Cc1cccc([C@@]23CC[C@@H](N(CCN4CC[C@@H](O)C4)C(=O)Nc4cc(Cl)cc(Cl)c4)CC2C3)c1 (stereo partly drawn)	MCH receptor (Homo sapiens)	hi
CC(C)N(CCN(C(=O)Nc1ccc(F)c(F)c1)C1CC[C@]2(c3cccc(C#N)c3)CC2C1)C(C)C (stereo partly drawn)	MCH receptor (Homo sapiens)	lo
CC(=O)Nc1cccc(C23CC[C@@H](N(CCN4CC[C@@H](O)C4)C(=O)Nc4ccc(F)c(C(F)(F)F)c4)CC2C3)c1 (stereo partly drawn)	MCH receptor (Homo sapiens)	mid
CNS(=O)(=O)NC1CCN(CCCN(C(=O)Nc2ccc(F)c(Cl)c2)[C@@H]2CC[C@@]3(c4cccc(C#N)c4)CC3C2)C1 (stereo partly drawn)	MCH receptor (Homo sapiens)	mid
N#Cc1cccc([C@@]23CC[C@@H](N(CCCN4CC[C@@H](O)C4)C(=O)Nc4cc(F)cc(F)c4)CC2C3)c1 (stereo partly drawn)	MCH receptor (Homo sapiens)	lo
CN1CCN(CCCN(C(=O)Nc2ccc(F)c(Cl)c2)[C@@H]2CC[C@]3(c4cccc(C#N)c4)C[C@@H]3C2)CC1	MCH receptor (Homo sapiens)	mid
CN(C)CCN(C(=O)Nc1ccc(Cl)c(Cl)c1)C1CC=C(c2cccc(C#N)c2)CC1 (stereo not drawn)	MCH receptor (Homo sapiens)	lo
N#Cc1cccc([C@@]23CC[C@@H](N(CCCN4CC[C@@H](F)C4)C(=O)Nc4ccc(F)c(F)c4)CC2C3)c1 (stereo partly drawn)	MCH receptor (Homo sapiens)	mid
N#Cc1cccc(C23CCC(N(CCN4CCCC4)C(=O)Nc4cc(Cl)cc(Cl)c4)C2C3)c1 (stereo not drawn)	MCH receptor (Homo sapiens)	hi
N#Cc1cccc([C@]23CCC(N(CCN4CC[C@@H](O)C4)C(=O)Nc4ccc(F)c(Cl)c4)[C@H]2C3)c1 (stereo partly drawn)	MCH receptor (Homo sapiens)	hi
CC(C)N(CCO)CCN(C(=O)Nc1cc(Cl)nc(Cl)c1)C1CC[C@@]2(c3cccc(C#N)c3)CC2C1 (stereo partly drawn)	MCH receptor (Homo sapiens)	lo
C[S+]([O-])c1cccc(C23CCC(N(CCCN4CCCC4)C(=O)Nc4ccc(Cl)c(Cl)c4)CC2C3)c1 (stereo not drawn)	MCH receptor (Homo sapiens)	hi
O=C(Nc1ccc(F)c(C(F)(F)F)c1)N(CCN1CCCC1)C1CC=C(c2cccc(Cl)c2)CC1 (stereo not drawn)	MCH receptor (Homo sapiens)	hi
CC(=O)NC1CCN(CCCN(C(=O)Nc2ccc(F)c(F)c2)[C@@H]2CC[C@@]3(c4cccc(C#N)c4)CC3C2)C1 (stereo partly drawn)	MCH receptor (Homo sapiens)	mid
CCNS(=O)(=O)NC1CCN(CCCN(C(=O)Nc2ccc(F)c(F)c2)[C@@H]2CC[C@@]3(c4cccc(C#N)c4)CC3C2)C1 (stereo partly drawn)	MCH receptor (Homo sapiens)	mid
